assayed-target: EeAChE (Electrophorus electricus, UniProt O42275)
Sequence (O42275 24-633): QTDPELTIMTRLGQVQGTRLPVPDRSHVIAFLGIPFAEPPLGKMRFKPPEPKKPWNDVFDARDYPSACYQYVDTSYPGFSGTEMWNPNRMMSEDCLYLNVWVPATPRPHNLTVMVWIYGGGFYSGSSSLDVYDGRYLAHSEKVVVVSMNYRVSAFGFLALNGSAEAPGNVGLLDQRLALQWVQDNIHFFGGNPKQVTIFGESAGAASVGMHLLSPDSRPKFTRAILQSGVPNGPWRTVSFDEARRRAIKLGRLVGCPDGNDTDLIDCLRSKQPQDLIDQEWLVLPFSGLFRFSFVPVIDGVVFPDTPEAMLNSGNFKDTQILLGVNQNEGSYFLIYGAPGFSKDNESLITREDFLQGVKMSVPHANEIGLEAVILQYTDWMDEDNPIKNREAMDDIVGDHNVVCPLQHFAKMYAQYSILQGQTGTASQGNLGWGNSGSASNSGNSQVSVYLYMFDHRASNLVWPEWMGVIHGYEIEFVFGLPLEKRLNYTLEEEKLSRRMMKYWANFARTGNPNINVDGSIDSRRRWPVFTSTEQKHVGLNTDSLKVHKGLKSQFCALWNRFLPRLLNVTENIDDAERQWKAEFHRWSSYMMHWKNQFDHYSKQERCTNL
observable: Ki
Please answer in the form of a number followed by its unit of measurement.

Prompt: Bench note: what Ki did Cn1ccnc1C1c2c(nc3c(c2N)CCCC3)Oc2ccc3ccccc3c21 (stereo not shown) show?
Response: 4.1 µM

* * *

For each entry below, report its Cell viability (MTT reduction, % control) value.
Tested on: HepG2 cells
Assay type: cell-based
protocol-conditions: HepG2, 100 µM, 24 h; mean ± S.E.M.
Procedure: The human hepatoma HepG2 line cells were purchased from American Type Culture Collection. […] Cell viability, measured as the mitochondrial activity of living cells, was determined by quantitative colorimetric assay with 3-[4,5 dimethylthiazol-2-yl]-2,5-diphenyl-tetrazolium bromide (MTT). […] The absorbance was read at 570 nm by microplate spectrophotometry. Cell viability was expressed as percentage over controls (DMSO, 0.1%).
Give bare numbers, in % control.

Worked set:
1. CC(=O)C1=C(C)Oc2nc3c(c(N)c2C1c1nccn1C)CCCC3 (stereo not shown) [Compound 4]: 104.6
2. CCOC(=O)C1=C(C)Oc2nc3c(c(N)c2C1c1nccn1C)CCCC3 (stereo not shown) [Compound 2]: 93.0

List reported Cell viability (MTT reduction, % control) for each of these compounds:
1. Nc1c2c(nc3ccccc13)CCCC2 [Tacrine]
2. Cn1ccnc1C1c2c(nc3c(c2N)CCCC3)Oc2ccc3ccccc3c21 (stereo not shown) [Compound 8]

Response:
1: 98.6; 2: 52.7
